Let's look at some binders and their measured Max MFI.
experimental target: T1, human GPC3 on CHO-K1-human GPC3 cells (CHOK1-hGPC3.2B5) (human, UniProt P51654 25-554)
T1 construct: whole, on cells
experiment: FACS, CHOK1-hGPC3.2B5 cells;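 further: flow cytometry of humanized antibodies binding to the cells over one hour in the cold, read as cell mean fluorescence intensity, with EC50 obtained by curve fitting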
Answer format: numeric, MFI implied, no suffix.

Sample records with Max MFI:
hAb001H2L1 (antibody, human IgG1, V domains shown, Humanized F2.169.2; VH H2 + VL L1; expressed as human IgG1) VH: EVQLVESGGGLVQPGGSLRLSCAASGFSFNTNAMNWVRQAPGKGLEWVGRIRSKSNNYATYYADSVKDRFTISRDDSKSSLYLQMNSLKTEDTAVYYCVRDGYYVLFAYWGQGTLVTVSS VL: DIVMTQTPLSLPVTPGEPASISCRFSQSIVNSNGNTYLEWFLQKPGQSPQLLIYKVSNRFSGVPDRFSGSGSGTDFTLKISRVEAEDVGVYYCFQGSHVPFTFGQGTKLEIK; 3550
hAb003LH2L1a (antibody, human IgG1, V domains shown, Humanized F2.154.1; VH H2 + VL L1a; expressed as human IgG1) VH: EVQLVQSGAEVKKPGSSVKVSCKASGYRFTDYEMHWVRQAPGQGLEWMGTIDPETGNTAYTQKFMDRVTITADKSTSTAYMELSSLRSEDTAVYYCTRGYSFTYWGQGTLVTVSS VL: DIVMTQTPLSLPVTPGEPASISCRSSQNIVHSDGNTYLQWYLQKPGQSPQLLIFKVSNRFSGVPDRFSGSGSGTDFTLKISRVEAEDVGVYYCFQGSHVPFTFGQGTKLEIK; 1770
hAb005LH1L1b (antibody, human IgG1, V domains shown, Humanized F3.54.12; VH H1 + VL L1b; expressed as human IgG1) VH: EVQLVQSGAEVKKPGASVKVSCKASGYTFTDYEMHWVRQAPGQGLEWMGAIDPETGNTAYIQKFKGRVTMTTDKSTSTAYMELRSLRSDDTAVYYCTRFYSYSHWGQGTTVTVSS VL: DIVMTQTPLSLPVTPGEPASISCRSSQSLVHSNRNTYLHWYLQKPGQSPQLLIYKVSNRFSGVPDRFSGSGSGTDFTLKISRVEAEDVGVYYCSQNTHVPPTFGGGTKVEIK; 4610
hAb005LH3L1 (antibody, human IgG1, V domains shown, Humanized F3.54.12; VH H3 + VL L1; expressed as human IgG1) VH: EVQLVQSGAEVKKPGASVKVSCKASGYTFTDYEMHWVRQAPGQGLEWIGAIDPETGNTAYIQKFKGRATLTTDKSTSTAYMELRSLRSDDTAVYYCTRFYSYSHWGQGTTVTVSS VL: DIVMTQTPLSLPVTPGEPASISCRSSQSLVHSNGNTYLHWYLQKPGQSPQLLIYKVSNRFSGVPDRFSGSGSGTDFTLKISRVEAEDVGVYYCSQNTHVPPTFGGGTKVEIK; 4700
hAb007LH3L1b (antibody, human IgG1, V domains shown, Humanized F3.81.19; VH H3 + VL L1b; expressed as human IgG1) VH: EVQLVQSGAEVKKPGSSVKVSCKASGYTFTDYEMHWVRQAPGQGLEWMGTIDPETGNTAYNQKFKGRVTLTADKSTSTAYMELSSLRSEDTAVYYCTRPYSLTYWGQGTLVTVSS VL: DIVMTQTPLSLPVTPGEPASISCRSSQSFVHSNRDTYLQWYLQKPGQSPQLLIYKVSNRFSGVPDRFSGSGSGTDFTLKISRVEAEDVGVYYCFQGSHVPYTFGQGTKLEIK; 6240

INPUT: # lookup: Max MFI of hAb001H1aL1 (antibody, human IgG1, V domains shown, Humanized F2.169.2; VH H1a + VL L1; expressed as human IgG1) VH: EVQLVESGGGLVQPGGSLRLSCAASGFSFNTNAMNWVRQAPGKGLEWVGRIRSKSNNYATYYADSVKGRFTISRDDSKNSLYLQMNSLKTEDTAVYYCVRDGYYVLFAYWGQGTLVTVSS VL: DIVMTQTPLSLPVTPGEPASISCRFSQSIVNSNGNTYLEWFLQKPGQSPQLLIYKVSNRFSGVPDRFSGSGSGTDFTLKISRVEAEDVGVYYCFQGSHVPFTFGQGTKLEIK
OUTPUT: 3270

INPUT: Which measured Max MFI value corresponds to hAb003LH3L1b (antibody, human IgG1, V domains shown, Humanized F2.154.1; VH H3 + VL L1b; expressed as human IgG1) VH: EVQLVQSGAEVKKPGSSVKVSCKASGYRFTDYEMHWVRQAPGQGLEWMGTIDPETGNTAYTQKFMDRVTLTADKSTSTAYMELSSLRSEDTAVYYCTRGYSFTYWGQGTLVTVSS VL: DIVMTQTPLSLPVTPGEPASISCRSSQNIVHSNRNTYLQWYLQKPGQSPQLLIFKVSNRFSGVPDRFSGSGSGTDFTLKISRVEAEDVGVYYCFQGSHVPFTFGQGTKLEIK ?
OUTPUT: 4980

INPUT: I am curious: what Max MFI value has been reported for hAb001H1aL1a (antibody, human IgG1, V domains shown, Humanized F2.169.2; VH H1a + VL L1a; expressed as human IgG1) VH: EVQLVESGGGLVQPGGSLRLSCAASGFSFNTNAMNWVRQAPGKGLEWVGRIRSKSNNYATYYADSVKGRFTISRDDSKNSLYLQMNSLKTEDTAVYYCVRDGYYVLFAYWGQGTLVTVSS VL: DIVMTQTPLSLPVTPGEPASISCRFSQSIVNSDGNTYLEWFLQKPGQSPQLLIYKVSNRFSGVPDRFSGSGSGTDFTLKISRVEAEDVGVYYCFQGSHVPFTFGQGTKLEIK ?
OUTPUT: 2530

INPUT: Suppose we examine the binder hAb001H2L1a (antibody, human IgG1, V domains shown, Humanized F2.169.2; VH H2 + VL L1a; expressed as human IgG1) VH: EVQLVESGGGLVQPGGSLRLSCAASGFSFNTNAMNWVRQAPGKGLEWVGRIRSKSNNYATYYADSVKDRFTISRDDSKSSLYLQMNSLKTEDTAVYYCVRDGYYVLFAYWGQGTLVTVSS VL: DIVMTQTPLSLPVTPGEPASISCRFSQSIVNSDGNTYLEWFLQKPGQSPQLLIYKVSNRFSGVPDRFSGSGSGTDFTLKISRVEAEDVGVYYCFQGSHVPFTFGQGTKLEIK ; what Max MFI value has been reported?
OUTPUT: 2550

INPUT: Data request, read-out Max MFI, for hAb003LH3L1a (antibody, human IgG1, V domains shown, Humanized F2.154.1; VH H3 + VL L1a; expressed as human IgG1) VH: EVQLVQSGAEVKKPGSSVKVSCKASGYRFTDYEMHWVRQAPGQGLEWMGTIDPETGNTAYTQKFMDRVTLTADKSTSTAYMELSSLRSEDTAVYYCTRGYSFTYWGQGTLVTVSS VL: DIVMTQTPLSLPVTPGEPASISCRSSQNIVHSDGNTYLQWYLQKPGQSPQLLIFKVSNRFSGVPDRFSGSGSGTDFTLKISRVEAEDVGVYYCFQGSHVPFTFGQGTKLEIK
OUTPUT: 2240
